The entries below come with measured composite z-score values attached.
- assay-text: small-molecule microarray binders of probe aLefty2, primary screen, biochemical, biotinylated probe, 635/667 nm fluorescence (AID 1094);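 further: score merges spot fluorescence near 667 nm with spot signal-to-noise ratio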
- applied-conditions: higher = more signal

>  <compound>
[N-]=[N+]=NCc1ccccc1C[C@]1(C(=O)N2CCOCC2)N=C(c2ccc(OCCCO)cc2)O[C@H]1c1ccccc1CN=[N+]=[N-]

>  <composite z-score>
0.747

$$$$
>  <compound>
CN(C)CCCC[C@@H]1NC(=O)[C@H]2C[C@@H](C(=O)O)[C@@H](c3cccc(OCCO)c3)N2C1=O

>  <composite z-score>
0.495

$$$$
>  <compound>
CN1C(=O)C2C=CC(C(O)c3ccc(-c4ccccc4)s3)N(Nc3ccccc3)C2C1=O (stereo not drawn)

>  <composite z-score>
0.182

$$$$
>  <compound>
CO[C@H]1O[C@H](CO)[C@@H](OC(=O)Nc2ccc3c(c2)OCO3)[C@@H]2OC(=O)[C@@H](Cc3ccccc3)C/C=C/C[C@H](Cc3ccccc3)C(=O)O[C@@H]12

>  <composite z-score>
-0.0562

$$$$
>  <compound>
C=CCC(OC(C)=O)[C@@H]1[C@@H](N(Cc2cccc3ccccc23)C(=O)c2ccc(C)cc2)c2cc(OCCCO)ccc2N1C(=O)c1ccc2ccccc2n1 (stereo partly drawn)

>  <composite z-score>
0.0748

$$$$
>  <compound>
C#CCN=C(N)N

>  <composite z-score>
-0.18

$$$$
>  <compound>
O=C1NC(=O)C2C1C=CC(C(O)c1ccc(F)cc1)N2Nc1ccccn1 (stereo not drawn)

>  <composite z-score>
-0.103

$$$$
>  <compound>
CC(C)CNC(=O)[C@@H]1c2ccccc2C(=O)N(Cc2ccccc2Cl)[C@H]1c1ccc(CO)cc1

>  <composite z-score>
0.0529

$$$$
